Target: Human plasma kallikrein (Homo sapiens (Human), UniProt P03952)
Sequence (P03952 391-638): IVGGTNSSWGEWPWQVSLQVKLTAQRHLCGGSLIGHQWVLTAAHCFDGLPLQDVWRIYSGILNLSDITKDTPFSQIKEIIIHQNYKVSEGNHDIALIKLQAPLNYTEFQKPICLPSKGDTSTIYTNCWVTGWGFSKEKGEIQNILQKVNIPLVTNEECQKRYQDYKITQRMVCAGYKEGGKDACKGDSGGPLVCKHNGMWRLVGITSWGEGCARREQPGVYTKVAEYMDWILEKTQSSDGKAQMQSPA
Sequence (P03952 20-390 partner): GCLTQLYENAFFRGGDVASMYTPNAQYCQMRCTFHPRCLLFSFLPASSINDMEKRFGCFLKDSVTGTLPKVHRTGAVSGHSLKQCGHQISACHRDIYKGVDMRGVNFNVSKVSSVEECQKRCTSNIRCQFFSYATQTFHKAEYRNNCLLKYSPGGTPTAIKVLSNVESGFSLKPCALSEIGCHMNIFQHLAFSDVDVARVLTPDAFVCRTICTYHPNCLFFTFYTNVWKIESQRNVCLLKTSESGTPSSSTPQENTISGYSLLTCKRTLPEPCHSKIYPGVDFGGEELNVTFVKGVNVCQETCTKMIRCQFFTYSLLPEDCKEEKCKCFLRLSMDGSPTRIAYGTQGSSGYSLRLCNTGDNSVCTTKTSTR
Assay: Kallikrein Assay
Type: biochemical
Details: purified Human plasma kallikrein 0.5 nM, Acetyl-K-P-R-AFC, pH 7.4; Ki from IC50 by Cheng Prusoff
pKi: −log10 of the molar value.
assay-metric: pKi

As a guide, the following entries are already answered.
COC(=O)Nc1ccc(C(=O)N[C@@H](CC(=O)N2CC(OC)C2)C(=O)N2CCC[C@@]3(C2)OC(=O)Nc2ccc(Cl)cc23)cc1
7.82
COC(=O)Nc1ccc(C(=O)NC(C[C@H]2CCCO2)C(=O)N2CCC[C@@]3(C2)OC(=O)Nc2ccc(Cl)c(F)c23)cc1 (single isomer, unassigned) [Example 117A]
7.97
Nc1ccc(C(=O)N[C@@H](Cc2ccc(F)cc2)C(=O)N2CCC[C@@]3(C2)OC(=O)Nc2ccc(Cl)cc23)cc1C(=O)O
8.71

a. COC(=O)Nc1ccc(C(=O)N[C@@H](CO)C(=O)N2CCC[C@@]3(C2)OC(=O)Nc2ccc(Cl)cc23)cc1
b. COC(=O)Nc1ccc(C(=O)N[C@@H](Cc2ccccc2)C(=O)N2CCC[C@@]3(C2)OC(=O)Nc2ccc(C)cc23)cc1
c. O=C1COc2cc(C(=O)N[C@@H](Cc3ccccc3)C(=O)N3CCC4(C3)OC(=O)Nc3ccc(Cl)cc34)ccc2N1 (stereo partly drawn)
Q: List items by pKi in falling order. Write the labels out in the order the request specifies.
Ans: b, a, c

---

Target: UniProtKB P03951
Assay: Factor XIa Assay
Type: biochemical
Conditions: purified human Factor XIa 40 pM, Z-Gly-Pro-Arg-AFC 100 μM, pH 7.4; read-out: FXIa Ki
assay-metric: Ki (µM)

The following compounds have reported results that may help.
O=C1Nc2ccc(Cl)cc2[C@@]2(CCN(C(=O)[C@@H](Cc3ccccc3)C(=O)Nc3ccc(C(=O)O)cc3)C2)O1 [Example 121d]
3.78
COC(=O)Nc1ccc(C(=O)N[C@@H](Cc2ccccc2)C(=O)N2CCC3(CC(=O)Nc4ccc(Cl)cc43)C2)cc1 (stereo partly drawn) [Example 18]
5
COC(=O)Nc1ccc2[nH]c([C@@H](Cc3ccccc3)C(=O)N3CC[C@]4(C3)OC(=O)Nc3ccc(Cl)cc34)nc2c1 [Example 131d]
5

P. COC(=O)Nc1ccc(C(=O)N[C@@H](CC(C)O)C(=O)N2CCC3(C2)OC(=O)Nc2ccc(Cl)cc23)cc1 (stereo partly drawn) [Example 110]
Q. COC(=O)Nc1ccc(C(=O)N[C@@H](CC(F)(F)F)C(=O)N2CCC[C@@]3(C2)OC(=O)Nc2ccc(Cl)cc23)cc1 [Example 64]
R. COC(=O)Nc1ccc(C(=O)N[C@@H](Cc2ccccc2)C(=O)N2CCC[C@]3(C2)OC(=O)Nc2ccc(F)cc23)cc1 [Example 8b]
Q: Order the records, beginning with the lowest Ki and ending with the highest. Provide the ranking by listing each label in its place in the requested order.
Ans: P, Q, R
(P: 0.052 µM, Q: 1.93 µM, R: 5 µM)

---

Target: Human plasma kallikrein (Homo sapiens (Human))
Test: Kallikrein Assay
Settings: purified Human plasma kallikrein 0.5 nM, Acetyl-K-P-R-AFC, pH 7.4; Ki from IC50 by Cheng Prusoff
assay-metric: Ki (nM)

COC(=O)Nc1ccc(C(=O)N[C@@H](CC(=O)N2CC[C@H]2CO)C(=O)N2CCC[C@@]3(C2)OC(=O)Nc2ccc(Cl)cc23)cc1
1.81
COC(=O)Nc1ccc(C(=O)N[C@@H](Cc2ccccc2)C(=O)N2CCCC3(C2)OC(=O)Nc2ccc(Cl)c(F)c23)cc1 (stereo partly shown)
1.4
COC(=O)Nc1ccc(C(=O)N[C@@H](Cc2ccccc2)C(=O)N2CC[C@@]3(C2)OC(=O)Nc2ccc(Cl)c(F)c23)cc1
3.51
COCC(=O)Nc1ccc(C(=O)N[C@@H](Cc2ccccc2)C(=O)N2CCC[C@@]3(C2)OC(=O)Nc2ccc(Cl)c(F)c23)cc1
2.72
COC(=O)Nc1ccc(C(=O)N[C@@H](CC2CCCCC2)C(=O)N2CCC[C@@]3(C2)OC(=O)Nc2ccc(Cl)cc23)cc1
17.7
CC(=O)Nc1ccc(C(=O)N[C@@H](Cc2ccccc2)C(=O)N2CCC[C@@]3(C2)OC(=O)Nc2ccc(Cl)c(F)c23)cc1
1.49
COC(=O)Nc1ccc(C(=O)N[C@@H](Cc2ccc(-c3cn[nH]c3)cc2)C(=O)N2CC[C@@]3(C2)OC(=O)Nc2ccc(Cl)cc23)cc1
24.5
COCC[C@H](NC(=O)c1ccc(NC(=O)OC)cc1)C(=O)N1CCC[C@@]2(C1)OC(=O)Nc1ccc(Cl)cc12
2.68

A. COC(=O)Nc1ccc(C(=O)N[C@@H](CC2CC2(F)F)C(=O)N2CCC[C@@]3(C2)OC(=O)Nc2ccc(Cl)c(F)c23)cc1 (single isomer, unassigned) [Example 67B]
B. COC(=O)Nc1ccc(C(=O)N[C@@H](CC(C)(C)O)C(=O)N2CC[C@@]3(C2)OC(=O)Nc2ccc(Cl)cc23)cc1
Q: Looking only at measured Ki, which entry is lower, A or B ? Selection: enter the item's label.
Ans: A

1. COC(=O)Nc1ccc(C(=O)NC(C[C@@H]2CCCO2)C(=O)N2CCC[C@@]3(C2)OC(=O)Nc2ccc(Cl)c(F)c23)cc1 (single isomer, unassigned) [Example 116A]
2. COC(=O)Nc1ccc(C(=O)N[C@@H](Cc2ccccc2)C(=O)N2CCC[C@@]3(C2)OC(=O)Nc2ccc(C)c(F)c23)cc1
Q: Hi team, can someone confirm which has the larger Ki: 1 or 2 ? Thanks. The response must carry the label of the picked entry.
Ans: 1
(1: 4.78 nM, 2: 1.36 nM)

---

Target: human Factor XIa (Homo sapiens (Human), UniProt P03951)
Sequence (P03951 388-625): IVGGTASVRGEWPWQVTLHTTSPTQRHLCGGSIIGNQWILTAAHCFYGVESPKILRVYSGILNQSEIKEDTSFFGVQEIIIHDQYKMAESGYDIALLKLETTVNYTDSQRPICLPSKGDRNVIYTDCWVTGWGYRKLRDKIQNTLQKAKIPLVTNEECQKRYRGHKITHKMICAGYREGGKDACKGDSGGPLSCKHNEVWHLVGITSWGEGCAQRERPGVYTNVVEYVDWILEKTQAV
Sequence (P03951 19-387 partner): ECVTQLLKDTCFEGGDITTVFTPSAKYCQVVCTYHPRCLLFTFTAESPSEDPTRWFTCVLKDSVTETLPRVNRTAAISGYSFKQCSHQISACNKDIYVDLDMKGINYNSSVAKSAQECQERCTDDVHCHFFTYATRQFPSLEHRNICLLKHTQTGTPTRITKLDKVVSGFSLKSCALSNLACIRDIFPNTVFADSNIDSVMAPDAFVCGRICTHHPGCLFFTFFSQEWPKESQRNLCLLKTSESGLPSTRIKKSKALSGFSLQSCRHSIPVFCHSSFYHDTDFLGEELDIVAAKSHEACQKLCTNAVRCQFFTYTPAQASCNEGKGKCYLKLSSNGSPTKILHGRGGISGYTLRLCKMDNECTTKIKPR
Test: Factor XIa Assay
Format: biochemical
Conditions: purified human Factor XIa 40 pM, Z-Gly-Pro-Arg-AFC 100 μM, pH 7.4; read-out: FXIa Ki
pKi: −log10 of the molar value.
assay-metric: pKi

Examples with their reported pKi follow.
COC(=O)Nc1ccc(C(=O)N[C@@H](CC(=O)N2CCOCC2)C(=O)N2CC[C@@]3(C2)OC(=O)Nc2ccc(Cl)cc23)cc1
7.70
COC(=O)Nc1ccc(C(=O)N[C@@H](CC2CC2(F)F)C(=O)N2CCC[C@@]3(C2)OC(=O)Nc2ccc(Cl)c(F)c23)cc1 (single isomer, unassigned) [Example 67A]
7.94
COC(=O)Nc1ccc(C(=O)N[C@@H](CC2CCCC2)C(=O)N2CCC[C@@]3(C2)OC(=O)Nc2ccc(Cl)cc23)cc1
7.50
COC(=O)Nc1ccc(C(=O)NC(C[C@H]2CCCO2)C(=O)N2CCC[C@@]3(C2)OC(=O)Nc2ccc(Cl)c(F)c23)cc1 (single isomer, unassigned) [Example 117B]
7.00

P. COC(=O)Nc1ccc(C(=O)N[C@@H](CC2CCCCC2)C(=O)N2CCC3(C2)OC(=O)Nc2ccc(Cl)cc23)cc1 (stereo partly shown)
Q. COC(=O)Nc1ccc(C(=O)N[C@H](C(=O)N2CCC[C@@]3(C2)OC(=O)Nc2ccc(Cl)c(F)c23)C2CC2)cc1
Q: Just curious, which one has the larger pKi reading, P or Q ? Output the label that corresponds to your choice.
Ans: Q
(Q: 7.25, P: 7.05)

1. COC(=O)Nc1ccc(C(=O)N[C@@H](Cc2ccccc2)C(=O)N2CC[C@@]3(C2)OC(=O)Nc2ccc(Cl)cc23)cc1
2. O=C1Nc2ccc(Cl)c(F)c2[C@@]2(CCCN(C(=O)[C@H](Cc3cnccn3)NC(=O)c3ccc4[nH]c(=O)ccc4c3)C2)O1
3. COC(=O)Nc1ccc(C(=O)N[C@@H](Cc2ccccc2)C(=O)N2CCC[C@@]3(C2)OC(=O)Nc2ccc(OC)cc23)cc1
Q: Ordering: ascending pKi. Order the labels as requested and list them.
Ans: 2, 1, 3
(2: 7.13, 1: 8.33, 3: 8.70)

---

Biological target: human Factor XIa (Homo sapiens (Human), UniProt P03951)
Experiment: Factor XIa Assay
Type: biochemical
Conditions: purified human Factor XIa 40 pM, Z-Gly-Pro-Arg-AFC 100 μM, pH 7.4; read-out: FXIa Ki
assay-metric: Ki (nM)

a. COC(=O)Nc1ccc(C(=O)NC(C[C@@H]2CCCO2)C(=O)N2CCC[C@@]3(C2)OC(=O)Nc2ccc(Cl)c(F)c23)cc1 (single isomer, unassigned) [Example 116A]
b. COC(=O)Nc1ccc(C(=O)N[C@@H](Cc2ccccc2)C(=O)N2CC[C@@]3(C2)OC(=O)Nc2ccccc23)cc1
c. COC(=O)Nc1ccc(-c2c[nH]c([C@@H](Cc3ccccc3)C(=O)N3CC[C@]4(C3)OC(=O)Nc3ccc(Cl)cc34)n2)cc1 [Example 122c]
Q: # rank_down: sort by Ki, max first Note for the reader: the ranking is given by listing the labels in the order requested.
Ans: c, b, a
